biological target: T1, human BMPR1B overexpressed on the surface of HEK293T cells (N-terminal Asp-Lys epitope tag, … (human, UniProt O00238 14-502)); assay: flow cytometry
T1 construct: also called HEK293T cells overexpressing hBMPR1B; BMPR1B-expressing HEK293T cells
T1 sequence (O00238 14-502): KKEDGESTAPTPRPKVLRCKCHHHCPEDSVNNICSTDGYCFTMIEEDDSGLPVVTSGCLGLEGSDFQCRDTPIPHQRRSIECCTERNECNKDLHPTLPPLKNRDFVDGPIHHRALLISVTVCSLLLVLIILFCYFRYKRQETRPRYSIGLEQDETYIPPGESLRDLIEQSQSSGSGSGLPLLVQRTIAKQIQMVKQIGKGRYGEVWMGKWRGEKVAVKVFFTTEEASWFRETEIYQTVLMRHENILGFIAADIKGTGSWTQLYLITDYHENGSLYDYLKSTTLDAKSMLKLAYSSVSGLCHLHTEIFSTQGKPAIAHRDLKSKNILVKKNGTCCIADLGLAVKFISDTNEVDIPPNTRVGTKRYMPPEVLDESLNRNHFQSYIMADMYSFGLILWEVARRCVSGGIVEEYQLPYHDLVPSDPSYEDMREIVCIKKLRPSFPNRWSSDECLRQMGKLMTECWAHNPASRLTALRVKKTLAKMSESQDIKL
Collected Flow cytometry MFI values appear next to each entry.
reported_metric: Flow cytometry MFI

binder: SC91.27 (murine anti-BMPR1B antibody) (antibody, V domains shown, Murine hybridoma antibody with the same VL as SC91.20) VH: QVQLQQPGAEVVKPGASVKLSCKASGYTFTNYWMQWVKQRPGQGLEWIGEIDPSDRYTMYNQKFKGKATLIVDTSSSTAYMQLSSLTSEDSAVYFCARFGYYVDYWGQGTTLTVSS VL: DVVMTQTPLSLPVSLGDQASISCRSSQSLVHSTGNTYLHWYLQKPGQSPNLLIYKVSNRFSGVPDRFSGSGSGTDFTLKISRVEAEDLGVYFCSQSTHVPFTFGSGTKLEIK
result: 6880
//
binder: SC91.11 (antibody, V domains shown) VH: QVQLQQPGAELVKPGASVKLSCKASGYTFTTYWMHWVKQRPGRGLEWIGRIDPNSGGTKYNEKFKSKATLTVDKPSSTACMQLSSLTSEDSAVYYCASRRGDIDVWGTGTTVTVSS VL: DIVMTQSQKFMSTSVGDRVSVTCKASQNVGTNVFWYQQKPGQSPKALIYAASYRYSGVPDRFTGSGSGTDFTLTISNVQSEDLADYFCQQYDSYPLTFGDGTKLELR
result: 7330
//
binder: SC91.9 (murine anti-BMPR1B antibody) (antibody, V domains shown, Murine hybridoma antibody) VH: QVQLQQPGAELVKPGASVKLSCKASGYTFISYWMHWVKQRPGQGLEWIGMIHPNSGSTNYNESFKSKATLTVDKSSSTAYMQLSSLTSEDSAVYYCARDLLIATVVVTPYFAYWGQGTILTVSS VL: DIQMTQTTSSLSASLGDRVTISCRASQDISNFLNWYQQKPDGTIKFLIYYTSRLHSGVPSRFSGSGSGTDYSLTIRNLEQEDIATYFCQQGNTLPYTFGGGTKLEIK
result: 5480
//
binder: SC91.20 (antibody, V domains shown) VH: QVQLQQPGAEVVRPGASLKLSCKASGYTFTSYWMQWIKQRPGQGLEWIGEIDPSDNYTMYNQKFKGKATLTVDTSSSTAYMQLSSLTSEDSAVYFCARFGFYVDYWGQGTTLTVSS VL: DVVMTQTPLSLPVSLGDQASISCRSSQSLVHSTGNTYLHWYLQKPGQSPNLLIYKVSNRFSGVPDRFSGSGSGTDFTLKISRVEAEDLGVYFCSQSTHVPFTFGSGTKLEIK
result: 7480
//
binder: SC91.19 (antibody, V domains shown) VH: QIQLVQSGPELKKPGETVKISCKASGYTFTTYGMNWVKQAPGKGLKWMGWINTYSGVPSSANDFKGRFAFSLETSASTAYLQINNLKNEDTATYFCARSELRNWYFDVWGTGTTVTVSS VL: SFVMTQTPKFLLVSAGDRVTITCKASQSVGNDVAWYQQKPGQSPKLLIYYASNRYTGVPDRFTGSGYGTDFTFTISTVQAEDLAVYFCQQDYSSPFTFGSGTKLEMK
result: 7250
//
binder: SC91.1 (murine anti-BMPR1B antibody) (antibody, V domains shown, Murine hybridoma antibody with a kappa light chain) VH: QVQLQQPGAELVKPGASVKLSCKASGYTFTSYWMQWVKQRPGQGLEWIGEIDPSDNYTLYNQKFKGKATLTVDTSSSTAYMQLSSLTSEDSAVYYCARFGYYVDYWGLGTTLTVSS VL: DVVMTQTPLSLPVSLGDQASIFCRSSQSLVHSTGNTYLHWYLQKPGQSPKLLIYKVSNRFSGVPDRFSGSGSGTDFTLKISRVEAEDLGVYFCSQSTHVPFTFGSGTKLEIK
result: 5520
//
binder: SC91.3 (murine anti-BMPR1B antibody) (antibody, V domains shown, Murine hybridoma antibody) VH: QVQLQQPGAELVKPGASVKLSCKASGYTFTSYWMQWVKQRPGQGLEWIGEIDPSDSYTLYNQKFKGKATLTVDTSSSTAYMQLSSLTSEDSAVYFCARFGYYIEYWGQGTTLTVSS VL: DVVMTQTPLSLPVSLGDQASISCRSSQSLVHSTGNTYLHWYLQKPGQSPKLLIYKVSNRFSGVPDRFSGSGSGTDFTLKISRVEAEDLGVYFCSQSTHVPFTFGSGTKLEIK
result: 6840
